Assign MIC to each entry below.
Tested on: Streptococcus pyogenes
Experiment: Antimicrobial activity against Streptococcus pyogenes ATCC 8668 by threefold dilution agar inclusion method
Assay type: functional

Q: Fill blank: measured MIC of the compound CC(=O)OCC1=C(/C=C/C(=O)[O-])N2C(=O)[C@@H](NC(=O)Cc3cccs3)[C@H]2SC1.[Na+] is ____.
Result: > 100 µg/mL

Q: Input CC(=O)OCC1=C(C2OCCO2)N2C(=O)[C@@H](NC(=O)Cc3cccs3)[C@H]2SC1
Result: > 100 µg/mL

Q: Input CC(=O)OCC1=C(C(=O)O)N2C(=O)[C@@H](NC(=O)Cc3cccs3)[C@H]2SC1 [CEPHALOTHIN]
Result: < 0.1 µg/mL

Q: Input CC(=O)OCC1=C(/C=N/NC(N)=O)N2C(=O)[C@@H](NC(=O)Cc3cccs3)[C@H]2SC1
Result: > 100 µg/mL

Q: Input CC(=O)OCC1=C(/C=N/OCC(=O)O)N2C(=O)[C@@H](NC(=O)Cc3cccs3)[C@H]2SC1
Result: > 100 µg/mL

Q: Input CC(=O)OCC1=C(C=O)N2C(=O)[C@@H](NC(=O)Cc3cccs3)[C@H]2SC1
Result: 30 µg/mL

Q: Input CO/N=C/C1=C(COC(C)=O)CS[C@@H]2[C@H](NC(=O)Cc3cccs3)C(=O)N12
Result: > 100 µg/mL

Q: Input CC(=O)OCC1=C(/C=N/O)N2C(=O)[C@@H](NC(=O)Cc3cccs3)[C@H]2SC1
Result: > 100 µg/mL
